Tested on: Caco-2 cells
Test: Caco 2 permeability assay
Format: in vitro ADME, human
Settings: Caco-2, verbal assessment

{"molecule": "O=C(N[C@H](C(=O)N1C[C@H](Cl)[C@H]2OCC(=O)[C@H]21)C1CCCCC1)c1ccc(-c2ccncn2)s1", "measured.target": "Caco-2 cells", "A to B permeability (in words)": "moderate"}
{"molecule": "O=C(N[C@H](C(=O)N1C[C@H](Cl)[C@H]2OCC(=O)[C@H]21)C1CCCCC1)c1ccc(-c2ccnnc2)s1", "measured.target": "Caco-2 cells", "A to B permeability (in words)": "moderate"}
{"molecule": "O=C(N[C@H](C(=O)N1C[C@H](Cl)[C@H]2OCC(=O)[C@H]21)C1CCCCC1)c1cccc(-c2cn[nH]c2)c1 [Example C1, reference compound]", "measured.target": "Caco-2 cells", "A to B permeability (in words)": "poor"}
{"molecule": "O=C(N[C@H](C(=O)N1C[C@H](Cl)[C@H]2OCC(=O)[C@H]21)C1CCCCC1)c1ccc(-c2cncnc2)s1", "measured.target": "Caco-2 cells", "A to B permeability (in words)": "moderate"}

----------
Target: UniProt P07711
Sequence (P07711 114-333): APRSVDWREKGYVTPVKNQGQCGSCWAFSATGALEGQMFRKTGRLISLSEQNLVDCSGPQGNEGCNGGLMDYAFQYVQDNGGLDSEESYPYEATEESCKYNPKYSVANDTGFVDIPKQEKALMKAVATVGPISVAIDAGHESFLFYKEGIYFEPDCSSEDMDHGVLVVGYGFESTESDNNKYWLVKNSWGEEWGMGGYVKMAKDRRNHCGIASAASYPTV
Test: CatL functional enzyme assay
Type: biochemical
Settings: read-out: hCatL, inhibition [%] at 31.6 μM

{"chemical.structure": "O=C(N[C@H](C(=O)N1C[C@H](Cl)[C@H]2OCC(=O)[C@H]21)C1CCCCC1)c1ccc(-c2cncnc2)o1", "inhibition at 31.6 µM [%]": 14}
{"chemical.structure": "O=C(N[C@H](C(=O)N1C[C@H](Cl)[C@H]2OCC(=O)[C@H]21)C1CCCCC1)c1sc(-c2cccnn2)cc1F", "inhibition at 31.6 µM [%]": 0}
{"chemical.structure": "Cc1nnccc1-c1ccc(C(=O)N[C@H](C(=O)N2C[C@H](Cl)[C@H]3OCC(=O)[C@H]32)C2CCCCC2)s1", "inhibition at 31.6 µM [%]": 21}
{"chemical.structure": "N#Cc1cncc(-c2ccc(C(=O)N[C@H](C(=O)N3C[C@H](Cl)[C@H]4OCC(=O)[C@H]43)C3CCCCC3)s2)c1", "inhibition at 31.6 µM [%]": 19}
{"chemical.structure": "Cc1ccnnc1-c1ccc(C(=O)N[C@H](C(=O)N2C[C@H](Cl)[C@H]3OCC(=O)[C@H]32)C2CCCCC2)s1", "inhibition at 31.6 µM [%]": 6}
{"chemical.structure": "O=C(N[C@H](C(=O)N1C[C@H](Cl)[C@H]2OCC(=O)[C@H]21)C1CCCCC1)c1sc(-c2ccnnc2)cc1F", "inhibition at 31.6 µM [%]": 11}
{"chemical.structure": "O=C(N[C@H](C(=O)N1C[C@H](Cl)[C@H]2OCC(=O)[C@H]21)C1CCCCC1)c1ncc(-c2ccc(C(F)(F)F)nc2)s1", "inhibition at 31.6 µM [%]": 5}
{"chemical.structure": "CCc1cc(-c2ccc(C(=O)N[C@H](C(=O)N3C[C@H](Cl)[C@H]4OCC(=O)[C@H]43)C3CCCCC3)s2)cnn1", "inhibition at 31.6 µM [%]": 14}
{"chemical.structure": "Cc1cc(-c2ccc(C(=O)N[C@H](C(=O)N3C[C@H](Cl)[C@H]4OCC(=O)[C@H]43)C3CCCCC3)s2)c(C)cn1", "inhibition at 31.6 µM [%]": 0}
{"chemical.structure": "Cc1cnncc1-c1ccc(C(=O)N[C@H](C(=O)N2C[C@H](Cl)[C@H]3OCC(=O)[C@H]32)C2CCCCC2)s1", "inhibition at 31.6 µM [%]": 20}
{"chemical.structure": "O=C(N[C@H](C(=O)N1C[C@H](Cl)[C@H]2OCC(=O)[C@H]21)C1CCCCC1)c1ncc(-c2cccnn2)s1", "inhibition at 31.6 µM [%]": 12}
{"chemical.structure": "O=C(N[C@H](C(=O)N1C[C@H](Cl)[C@H]2OCC(=O)[C@H]21)C1CCCCC1)c1ccc(-c2cccnc2)s1", "inhibition at 31.6 µM [%]": 10}
{"chemical.structure": "Cc1cc(-c2cnc(C(=O)N[C@H](C(=O)N3C[C@H](Cl)[C@H]4OCC(=O)[C@H]43)C3CCCCC3)s2)cn[n+]1[O-]", "inhibition at 31.6 µM [%]": 12}
{"chemical.structure": "Cc1cc(-c2cnc(C(=O)N[C@H](C(=O)N3C[C@H](Cl)[C@H]4OCC(=O)[C@H]43)C3CCCCC3)s2)cnn1", "inhibition at 31.6 µM [%]": 28}
{"chemical.structure": "O=C(N[C@H](C(=O)N1C[C@H](Cl)[C@H]2OCC(=O)[C@H]21)C1CCCCC1)c1ccc(-c2ccc(C(F)(F)F)nc2)s1", "inhibition at 31.6 µM [%]": 25}
{"chemical.structure": "O=C(N[C@H](C(=O)N1C[C@H](Cl)[C@H]2OCC(=O)[C@H]21)C1CCCCC1)c1nnc(-c2ccncc2)s1", "inhibition at 31.6 µM [%]": 14}
{"chemical.structure": "COc1cnnc(-c2ccc(C(=O)N[C@H](C(=O)N3C[C@H](Cl)[C@H]4OCC(=O)[C@H]43)C3CCCCC3)s2)c1", "inhibition at 31.6 µM [%]": 30}
{"chemical.structure": "Cc1nccc(-c2cnc(C(=O)N[C@H](C(=O)N3C[C@H](Cl)[C@H]4OCC(=O)[C@H]43)C3CCCCC3)s2)n1", "inhibition at 31.6 µM [%]": 22}
{"chemical.structure": "Cc1cc(-c2ccc(C(=O)N[C@H](C(=O)N3C[C@H](Cl)[C@H]4OCC(=O)[C@H]43)C3CCCCC3)s2)c(C)nn1", "inhibition at 31.6 µM [%]": 12}
{"chemical.structure": "O=C(N[C@H](C(=O)N1C[C@H](Cl)[C@H]2OCC(=O)[C@H]21)C1CCCCC1)c1ncc(-c2cnccn2)s1", "inhibition at 31.6 µM [%]": 7}
{"chemical.structure": "O=C(N[C@H](C(=O)N1C[C@H](Cl)[C@H]2OCC(=O)[C@H]21)C1CCCCC1)c1ccc(-c2cnc(C3CC3)nc2)s1", "inhibition at 31.6 µM [%]": 13}
{"chemical.structure": "O=C(N[C@H](C(=O)N1C[C@H](Cl)[C@H]2OCC(=O)[C@H]21)C1CCCCC1)c1ncc(-c2cnc(C(F)(F)F)nc2)s1", "inhibition at 31.6 µM [%]": 8}
{"chemical.structure": "O=C(N[C@H](C(=O)N1C[C@H](Cl)[C@H]2OCC(=O)[C@H]21)C1CCCCC1)c1ccc(-c2ccncn2)s1", "inhibition at 31.6 µM [%]": 28}
{"chemical.structure": "O=C(N[C@H](C(=O)N1C[C@H](Cl)[C@H]2OCC(=O)[C@H]21)C1CCCCC1)c1ncc(-c2ccncc2)s1", "inhibition at 31.6 µM [%]": 4}
